Quick list: normalized growth per entry.
- experiment.summary: chemical genetic growth profiling, strain panel (AID 1159580);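 further: tested at 20 µM; growth read once vehicle control cultures reached saturation at 30 °C; 1 = growth at the plate median or of vehicle wells; lower values mean less growth of the strain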
- condition.parameters: S. cerevisiae deletion strains, growth OD, locus YGR229C, strain SMI1, stronger effect = lower value
Screen size: about 5,500 compounds; about 2,000 (36%) were called active. Another 18% or so got no clear call; they are omitted. The list shows a part of the results.

Would you please look over these solved cases?
{"columns": ["compound", "reported.result"],
 "data": [
  ["CC1CCc2cc(F)cc3c(=O)c(C(=O)O)cn1c23 (stereo unspecified)", "1.01 (inactive)"],
  ["O=c1c(-c2ccc(O)cc2)coc2cc(O)ccc12", "0.974 (inactive)"],
  ["CNC(=O)O/N=C(\\C)SC", "1.03 (inactive)"],
  ["CN1C2CCC1CC(OC(c1ccccc1)c1ccccc1N)C2 (stereo unspecified)", "0.992 (inactive)"],
  ["COC(=O)C[C@H]1C2(C)CC34OC5(C)O[C@@]6([C@H](OC)C(OC(=O)C(C)C)[C@]7(C)C(/C(=C(/OC)C(C)C)C(=O)O[C@H]7c7ccoc7)[C@@]6(O5)[C@H](OC)[C@@]3(OC)C2OC(C)=O)[C@]14C (stereo partly specified)", "0.998 (inactive)"],
  ["CN1CC(=O)N=C1N", "1.02 (inactive)"],
  ["CSc1nc(N)n(-c2ccccc2)n1", "0.99 (inactive)"],
  ["COc1ccc(OC)c(C(O)CNC(=O)CN)c1 (stereo unspecified)", "0.99 (inactive)"],
  ["C[C@H]1COc2c(N3CCN(C)CC3)c(F)cc3c(=O)c(C(=O)O)cn1c23", "0.989 (inactive)"],
  ["COC(=O)CC1C2(C)CC34OC5(C)OC6(C7/C(=C(/O)C(C)C)C(=O)OC(c8ccoc8)C7(C)C(OC(=O)C(C)C)C(OC)C6(O5)C13C)C(OC)C4(OC)C2OC(C)=O (stereo unspecified)", "1 (inactive)"]
]}

IN: Field request: normalized growth | item: CCN1CCCC(OC(=O)C(c2ccccc2)c2ccccc2)C1 (stereo unspecified)
OUT: 1.01 (inactive)

IN: Here is the next compound: CCCCCCC(C)OC(=O)COc1cc(Cl)c(Cl)cc1Cl (stereo unspecified)
OUT: 0.952 (inactive)

IN: Here is the next compound: `CC1(C)S[C@@H]2[C@H](NC(=O)[C@H](N)c3ccccc3)C(=O)N2[C@H]1C(=O)O`
OUT: 1.03 (inactive)

IN: Here is the next compound: O=C(OCC(O)CO)c1ccccc1Nc1ccnc2cc(Cl)ccc12 (stereo unspecified)
OUT: 0.981 (inactive)

IN: Here is the next compound: `COc1ccc(CN(CCN(C)C)c2ccccn2)cc1`
OUT: 1.01 (inactive)

IN: Here is the next compound: `CN(C)CCN(Cc1cccs1)c1ccccn1`
OUT: 0.996 (inactive)

IN: Here is the next compound: `CN1C2C[C@H](OC(=O)[C@H](CO)c3ccccc3)C[C@H]1[C@@H](O)C2`
OUT: 1.02 (inactive)

IN: Here is the next compound: CCC(C)C(=O)O[C@@H]1C[C@@]2(C)[C@H](c3ccoc3)OC(=O)CC23OC2(C)O[C@]14[C@]1(C)[C@@H](CC(=O)OC)C5(C)CC1(O)[C@](O)(C5OC(=O)C1(C)OC1C)[C@@H](OC(C)=O)[C@]34O2 (stereo partly specified)
OUT: 1.03 (inactive)

IN: Here is the next compound: CC(C)NCC(O)COc1cccc2[nH]ccc12 (stereo unspecified)
OUT: 1.01 (inactive)

IN: Here is the next compound: O=C1CCC(N2C(=O)c3ccccc3C2=O)C(=O)N1 (stereo unspecified)
OUT: 1.04 (inactive)

IN: Here is the next compound: `O=C1C(Cl)=C(Cl)C(=O)C(Cl)=C1Cl`
OUT: 0.0849 (active)
